EXPERIMENT DESCRIPTION: In vivo PK, oral gavage, plasma
Parameters: species or system Rat (SD)
PROTOCOL CONDITIONS: SD, rat, plasma, po, 5 mg/kg, Rat, 8.00 hr, BQL limit 1.00 ng/mL, read-out: Plasma concentration, individual animal
From the text: Table 20 provides results of in vitro and in vivo pharmacokinetics performed for each of the represented compounds. Tables 4 and 5 depict the summary of rat plasma sample concentrations after administration of ADG I-204. FIG. 6 provides a summary of rat plasma and brain concentrations.
RECORDED ENDPOINT: concentration at 8 h (ng/mL)
// return numeric value only (unit: ng/mL, not printed)

Report measured concentration at 8 h; entry is `CNC(=O)Nc1ccc2nc(-c3cccs3)c(-c3cccs3)nc2c1`
15.6
